Entries and their inhibition
- Test system: E. coli NCTC 12923 growth inhibition, 100 uM
- test.description: microbial growth inhibition plus red cell haemolysis – Idler compounds, first plate, PMBN-permeabilized strains, profiling panel (AID 2061108)
- conditions: E. coli NCTC 12923 growth inhibition, 100 µM; stronger effect = higher value
property.label: inhibition (%)

>  <molecule>
O=C(Cc1ccc(C(F)(F)F)nc1)N1Cc2cccnc2C1

>  <uom>
%

>  <test.result>
-5.95

$$$$
>  <molecule>
Cc1ccc(N2CN(CC(=O)Nc3ccccc3Cl)S(=O)(=O)c3cccnc32)cc1

>  <uom>
%

>  <test.result>
-45.3

$$$$
>  <molecule>
COC(=O)c1ccc(C2CN(c3ccnc(S(=O)(=O)F)c3)C2)nc1

>  <uom>
%

>  <test.result>
1.62

$$$$
>  <molecule>
COc1cc(OC)cc(C2(NC(=O)c3ccc(N4CCOCC4)cc3)COC2)c1

>  <uom>
%

>  <test.result>
0.541

$$$$
>  <molecule>
CCS(=O)(=O)c1ccc(CNc2nc3ccccc3cc2C#N)s1

>  <uom>
%

>  <test.result>
-13.4

$$$$
>  <molecule>
O=S(=O)(F)c1cccc(NCc2ccc(F)cc2)n1

>  <uom>
%

>  <test.result>
-1.49

$$$$
>  <molecule>
Cn1nc(NC(=O)Nc2ccc(Cl)cc2)cc1C(C)(C)C

>  <uom>
%

>  <test.result>
-25

$$$$
>  <molecule>
Cc1ccn2c(=O)nc(SCC(=O)OCc3ccccc3)nc2c1

>  <uom>
%

>  <test.result>
-34.5

$$$$
>  <molecule>
N#Cc1ccc(NC2Cc3cccc(O)c3C2)cc1C(F)(F)F (stereo unspecified)

>  <uom>
%

>  <test.result>
22.3

$$$$
>  <molecule>
NC(=O)C1CCN(c2nc(OCc3ccc(F)nc3)nc(N3CCn4c(nnc4C(F)(F)F)C3)n2)CC1

>  <uom>
%

>  <test.result>
-2.57

$$$$
>  <molecule>
CCn1c(SCC(=O)N(C)c2ccccc2)nnc1-c1cn(C)nc1OC

>  <uom>
%

>  <test.result>
-41.1

$$$$

====

- System: E. coli NCTC 12923 growth inhibition, 100 uM
- test.description: microbial growth inhibition plus red cell haemolysis – Idler compounds, first plate, PMBN-permeabilized strains, profiling panel (AID 2061108)
- conditions: E. coli NCTC 12923 growth inhibition, 100 µM; stronger effect = higher value
property.label: inhibition (%)

>  <compound>
O=C(Nc1ccc(-c2nn[nH]n2)cc1)c1ccc(Oc2ccccc2)cc1

>  <property.label>
inhibition

>  <test.result>
0.27

$$$$
>  <compound>
O=c1[nH]c(=O)c2cc(S(=O)(=O)Nc3cc(F)c(N4CCN(c5ccccn5)CC4)c(F)c3)ccc2[nH]1

>  <property.label>
inhibition

>  <test.result>
0.946

$$$$
>  <compound>
CCOc1ccc2ncc(C#N)c(N3CCC(C(=O)NCc4ccccc4F)CC3)c2c1

>  <property.label>
inhibition

>  <test.result>
-44.6

$$$$
>  <compound>
COc1ccc2c(c1)nc(-c1ccc[nH]1)c1[nH]ccc12

>  <property.label>
inhibition

>  <test.result>
43.8

$$$$
>  <compound>
COc1cc2nc(N3CCC(N(C)C)C3)nc(N3CCN(C(=O)OC(C)(C)C)CC3)c2cc1OC (centres undefined)

>  <property.label>
inhibition

>  <test.result>
2.57

$$$$
>  <compound>
COc1cc2nc(Nc3cc(C)[nH]n3)nc(N3CC(N(C)C)C3)c2cc1OC

>  <property.label>
inhibition

>  <test.result>
5.14

$$$$
>  <compound>
COc1cccc(C(=O)NCCOCc2cccc(N)c2)c1

>  <property.label>
inhibition

>  <test.result>
-10.5

$$$$
>  <compound>
CS(=O)(=O)CCCNC[C@@H](O)c1ccccc1

>  <property.label>
inhibition

>  <test.result>
-6.89

$$$$
>  <compound>
CCCOc1cc(S(=O)(=O)n2cccn2)ccc1Br

>  <property.label>
inhibition

>  <test.result>
-38.1

$$$$
>  <compound>
CC(C)C(N)C(=O)NS(=O)(=O)c1cccc(-c2cc3ncnc(N)c3s2)c1 (centres undefined)

>  <property.label>
inhibition

>  <test.result>
-28.5

$$$$
>  <compound>
Nc1ncnc2cc(-c3cccc(S(=O)(=O)NC(=O)C4CCCN4)c3)sc12 (centres undefined)

>  <property.label>
inhibition

>  <test.result>
-67.2

$$$$
>  <compound>
CC(N)C(=O)NS(=O)(=O)c1cccc(-c2cc3ncnc(N)c3s2)c1 (centres undefined)

>  <property.label>
inhibition

>  <test.result>
-32.4

$$$$
>  <compound>
CCOc1ccc(-c2cc(=O)n(CC(=O)N3CCC(Cc4ccccc4)CC3)cn2)cc1

>  <property.label>
inhibition

>  <test.result>
-16.4

$$$$
>  <compound>
CC(C)CC(N)C(=O)NS(=O)(=O)c1cccc(-c2cc3ncnc(N)c3s2)c1 (centres undefined)

>  <property.label>
inhibition

>  <test.result>
-84.3

$$$$
>  <compound>
N#Cc1c(N2C[C@@H](CC(N)=O)[C@H](O)C2)nc2ccccc2c1C(F)(F)F

>  <property.label>
inhibition

>  <test.result>
0.811

$$$$
>  <compound>
O=C(N/N=C/C1CCOCC1)c1ccncc1

>  <property.label>
inhibition

>  <test.result>
-1.62

$$$$
>  <compound>
Cc1cccc(C)c1OCC(O)CSc1ccccn1 (centres undefined)

>  <property.label>
inhibition

>  <test.result>
-44.2

$$$$
>  <compound>
COc1cccc(C(=O)Nc2nc3cc(Cl)c(OC)cc3s2)c1

>  <property.label>
inhibition

>  <test.result>
-30.8

$$$$
>  <compound>
COc1ccc2c(c1)nc(-c1c[nH]c3ccc(N4CCSCC4)cc13)c1[nH]ccc12

>  <property.label>
inhibition

>  <test.result>
9.46

$$$$
>  <compound>
C=CC(=O)N1CCC[C@H](CC(=O)O)C1

>  <property.label>
inhibition

>  <test.result>
-6.76

$$$$
>  <compound>
CC(Nc1ccc2oc(=O)[nH]c2c1)C(=O)Nc1ccccc1C#N (centres undefined)

>  <property.label>
inhibition

>  <test.result>
-4.73

$$$$
>  <compound>
O=C(Nc1ccc(Oc2ccccc2)cc1)c1cccc(-c2nn[nH]n2)c1

>  <property.label>
inhibition

>  <test.result>
-9.59

$$$$
>  <compound>
O=C(Nc1ccc(Oc2ccccc2)cc1)c1ccc(-c2nn[nH]n2)nc1

>  <property.label>
inhibition

>  <test.result>
0.676

$$$$
>  <compound>
Cn1nc(C(C)(C)C)cc1NC(=O)Nc1ccc(Cl)cc1

>  <property.label>
inhibition

>  <test.result>
12.6

$$$$
>  <compound>
O=c1[nH]c(=O)c2cc(S(=O)(=O)Nc3cc(F)c(NCCN4CCOCC4)c(F)c3)ccc2[nH]1

>  <property.label>
inhibition

>  <test.result>
-4.32

$$$$
>  <compound>
CC(C)c1conc1CNc1ccnc(S(=O)(=O)F)c1

>  <property.label>
inhibition

>  <test.result>
-1.22

$$$$
>  <compound>
O=C(NC1(c2ccc(Br)cc2)COC1)c1ccc(N2CCOCC2)cc1

>  <property.label>
inhibition

>  <test.result>
-5.27

$$$$
>  <compound>
Cc1ccc(C)c(N2CCN(C(=O)C3CCN(c4ncnc5c4sc4ncccc45)CC3)CC2)c1

>  <property.label>
inhibition

>  <test.result>
9.19

$$$$
>  <compound>
NC(=O)C1CCN(c2nc(OCc3ccc(F)nc3)nc(N3CCCOCC3)n2)CC1

>  <property.label>
inhibition

>  <test.result>
-2.97

$$$$
>  <compound>
O=C(Nc1ccccc1)C(Cl)C(=O)c1ccccc1 (centres undefined)

>  <property.label>
inhibition

>  <test.result>
20.3

$$$$
>  <compound>
N#Cc1c(N2Cc3cccc(O)c3C2)nc2ccccc2c1C(F)(F)F

>  <property.label>
inhibition

>  <test.result>
2.16

$$$$
>  <compound>
N#Cc1c(Cl)nc2ccccc2c1C(F)(F)F

>  <property.label>
inhibition

>  <test.result>
-10

$$$$
>  <compound>
COc1cc2nc(Nc3cc(C)[nH]n3)nc(NC3CCN(C(=O)OC(C)(C)C)CC3)c2cc1OC

>  <property.label>
inhibition

>  <test.result>
14.5

$$$$
>  <compound>
Nc1ncnc2cc(-c3cccc(S(=O)(=O)NC(=O)C(N)Cc4ccccc4)c3)sc12 (centres undefined)

>  <property.label>
inhibition

>  <test.result>
-49.3

$$$$
>  <compound>
N#CC1(c2cccc(-c3cccc4c3CCOC4C(=O)O)c2)CC1 (centres undefined)

>  <property.label>
inhibition

>  <test.result>
-6.62

$$$$
>  <compound>
COc1ccc(/C=C(\C#N)S(=O)(=O)c2ccccc2)cc1OC

>  <property.label>
inhibition

>  <test.result>
-0.135

$$$$
>  <compound>
O=S(=O)(NC1(Cc2ccc(Cl)cc2Cl)CCC1)c1ccc(-c2nn[nH]n2)cc1

>  <property.label>
inhibition

>  <test.result>
0.135

$$$$
>  <compound>
O=C(Nc1nnc2ccccn12)c1ccc2cccc(Cl)c2n1

>  <property.label>
inhibition

>  <test.result>
-51.6

$$$$
>  <compound>
O=C(NCCn1ccc2ccccc21)Nc1c[nH]c2ccccc12

>  <property.label>
inhibition

>  <test.result>
-5.81

$$$$
>  <compound>
Cn1c(=O)oc2cc(S(=O)(=O)NC3CC4CCC3C4)ccc21 (centres undefined)

>  <property.label>
inhibition

>  <test.result>
-0.946

$$$$
>  <compound>
CCC(C)NS(=O)(=O)CCCOc1ccc(F)cc1 (centres undefined)

>  <property.label>
inhibition

>  <test.result>
0

$$$$
>  <compound>
O=C(CSc1nc(=O)[nH]c2c1CCC2)c1ccc(Cl)cc1

>  <property.label>
inhibition

>  <test.result>
-22

$$$$
>  <compound>
FC(F)Oc1ccc(-c2nnc3cncc(OCCCC(F)(F)F)n23)cc1

>  <property.label>
inhibition

>  <test.result>
-7.16

$$$$
>  <compound>
CC(C)NC(=O)Nc1cccc(C(=O)NC(C)c2cccc(Br)c2)c1 (centres undefined)

>  <property.label>
inhibition

>  <test.result>
-0.541

$$$$
